Measured values drawn from PubChem BioAssay (NCI) for this set.

system: UO-31 renal; experiment: NCI-60 one-dose screen, 48 h; conditions: 10 µM
About 83,000 compounds went through this panel and 20% of them were active in at least one assay; those are over-represented in the sample as a whole. The source made the active and inactive calls. How the source made its calls: active means growth percent below 10; inactive means the rest.
Pick one: T for active, F for inactive

Answered examples (5):
{"compound": "Cc1cc(C)c2nc(C)c(C)[n+]([O-])c2c1", "label class": "F"}
{"compound": "CCOC(=O)c1cc(-c2ccccc2)nc(N)n1", "label class": "F"}
{"compound": "O=C(Nc1cccc(C(F)(F)F)c1)C(Cl)Cl", "label class": "F"}
{"compound": "Fc1ccc(Nc2ccnc(N3CCN(c4ccnc5cc(Cl)ccc45)CC3)n2)cc1", "label class": "T"}
{"compound": "CCCCn1c(=O)[nH]c(N)c(C(c2ccc(Cl)cc2)c2c(N)[nH]c(=O)n(CCCC)c2=O)c1=O", "label class": "F"}

Prompt: Entry `COc1ccc(C(=O)/C=C/c2cc(-c3ccc(OC)c(OC)c3)n[nH]2)cc1OC` : call = ?
Completion: T

Prompt: Try this compound too: `C=C1C(=O)O[C@H]2[C@H]1CC/C(COC(=O)OCCCCCOC(=O)OC/C1=C/CC[C@@]3(C)O[C@H]3[C@H]3OC(=O)C(=C)[C@@H]3CC1)=C\CC[C@@]1(C)O[C@@H]21`
Completion: T

Prompt: Can you handle CCCCOCC(=O)NC(NP(=O)(N(C)C)N(C)C)C(Cl)(Cl)Cl (stereo not given) next?
Completion: F

Prompt: One more compound: `O=C(NC1CCN(Cc2ccccc2)CC1)c1cc(-c2ccncc2)nc2ccc(Cl)cc12`
Completion: F

Prompt: What do you get for `CC(=O)/C(=C\c1ccc(Cl)cc1)c1ccccc1` ?
Completion: F
